- System: LNCaP xenograft
- ASSAY_METHOD_TEXT: Biodistribution of 68Ga-labeled compounds in mice bearing LNCaP xenograft
- Type: in vivo
- MEASUREMENT_SETUP: Stomach, 1 h p.i.
As shown below, each of these compounds has a reported Biodistribution, Stomach (Avg) value.
I only need the number, in % ID/g, no unit after it.

Reference set (2 entries):
O=C(O)CCCC(NC(=O)NC(CNC(=O)CNC(=O)C(Cc1c2ccccc2cc2ccccc12)NC(=O)C1CCC(CNC(=O)CN2CCN(CC(=O)O)CCN(CC(=O)O)CCN(CC(=O)O)CC2)CC1)C(=O)O)C(=O)O.[68Ga] (stereo not drawn) [68Ga-CCZ01198] | 0.03
O=C(O)CCCC(NC(=O)NC(COCCNC(=O)C(Cc1c2ccccc2cc2ccccc12)NC(=O)C1CCC(CNC(=O)CN2CCN(CC(=O)O)CCN(CC(=O)O)CCN(CC(=O)O)CC2)CC1)C(=O)O)C(=O)O.[68Ga] (stereo not drawn) [^68Ga-CCZ02011] | 0.07

Proceed to the following item.
Form field: reported Biodistribution, Stomach (Avg) of O=C(O)CSCC(NC(=O)NC(Cc1cn(CCNC(=O)C(Cc2c3ccccc3cc3ccccc23)NC(=O)C2CCC(CNC(=O)CN3CCN(CC(=O)O)CCN(CC(=O)O)CCN(CC(=O)O)CC3)CC2)nn1)C(=O)O)C(=O)O.[68Ga] (stereo not drawn) [^68Ga-CCZ01186]
0.14

This collection of values is drawn from patent US20240018110A1.
